# testTarget: F290V AChE1 (Culex pipiens, UniProt Q86GC8, F416V)
# testConditions: F290V OP-insensitive AChE1

{"smilesText": "COc1cccc(N2C(=O)C(=Cc3ccc(C)o3)C(=O)NC2=S)c1", "quantityUnit": "µM", "IC50": 37.4}
{"smilesText": "Cc1cccc(N2C(=O)C(=Cc3ccc(C)o3)C(=O)NC2=S)c1", "quantityUnit": "µM", "IC50": 39.3}
{"smilesText": "Cc1ccc(C=C2C(=O)NC(=O)N(c3ccccc3)C2=O)o1", "quantityUnit": "µM", "IC50": 12.4}
{"smilesText": "Cc1ccc(C=C2C(=O)N(C)C(=O)N(C)C2=O)o1", "quantityUnit": "µM", "IC50": 13.9}
{"smilesText": "Cc1ccc(C=C2C(=O)NC(=O)N(c3ccc(Cl)cc3)C2=O)o1", "quantityUnit": "µM", "IC50": 14.5}
{"smilesText": "COc1ccc(N2C(=O)NC(=O)C(=Cc3ccc(C)o3)C2=O)cc1", "quantityUnit": "µM", "IC50": 85.9}

---

# maps each entry to its LD50 Ducos
# Test system: C. pipiens Ducos strain larvae
# protocolNotes: Larval bioassay, Ducos strain (ace-1 duplication)
# Assay type: in vivo, Culex pipiens
# testConditions: C. pipiens OP-resistant ace-1 D (duplication) larvae

{"molecule": "CNC(=O)Oc1ccccc1OC(C)C [Propoxur, reference compound]", "LD50 Ducos / µM": 56.7}
{"molecule": "COc1cccc(N2C(=O)C(=Cc3ccc(C)o3)C(=O)NC2=S)c1 [PTF-29]", "LD50 Ducos / µM": 409.0}
{"molecule": "CCOP(=S)(OCC)Oc1nc(Cl)c(Cl)cc1Cl [Chlorpyrifos, reference compound]", "LD50 Ducos / µM": 0.0022}
{"molecule": "Cc1cccc(N2C(=O)C(=Cc3ccc(C)o3)C(=O)NC2=S)c1 [PTF-25]", "LD50 Ducos / µM": 130.8}
{"molecule": "Cc1ccc(C=C2C(=O)NC(=O)N(c3ccccc3)C2=O)o1 [PTF-3]", "LD50 Ducos / µM": 162.1}
{"molecule": "COc1ccc(N2C(=O)NC(=O)C(=Cc3ccc(C)o3)C2=O)cc1 [PTF-10]", "LD50 Ducos / µM": 232.8}
{"molecule": "Cc1ccc(C=C2C(=O)N(C)C(=O)N(C)C2=O)o1 [PTF-39]", "LD50 Ducos / µM": 201.9}

---

# testTarget: WT AChE1 (Culex pipiens, UniProt Q86GC8)
# protocolNotes: AChE assay (Ellman), dose-response on recombinant WT AChE1
# Type: biochemical
# Parameters: made in house; host or cells: Drosophila S2 cells
# testConditions: recombinant wild-type C. pipiens AChE1; 15 min incubation; acetylthiocholine; read-out: IC50 WT
API: label(entry) gives criterion met if the entry's IC50 is strictly smaller than 5 µM; on equality or larger values it gives criterion not met.

{"smilesText": "COc1cccc(N2C(=O)NC(=O)C(=Cc3ccc(C)o3)C2=O)c1", "assignedClass": "criterion not met"}
{"smilesText": "COc1ccccc1N1C(=O)NC(=O)C(=Cc2ccc(C)o2)C1=O", "assignedClass": "criterion met"}
{"smilesText": "CN1CCN(c2ccc(C=C3C(=O)N(C)C(=O)N(C)C3=O)o2)CC1", "assignedClass": "criterion not met"}
{"smilesText": "Cc1ccc(C=C2C(=O)NC(=O)N(CCc3ccc(F)cc3)C2=O)o1", "assignedClass": "criterion met"}
{"smilesText": "C=CCN1C(=O)NC(=O)C(=Cc2ccc(C)s2)C1=O", "assignedClass": "criterion not met"}
{"smilesText": "CN1C(=O)C(=Cc2ccc(-c3ccccc3C(=O)O)o2)C(=O)N(C)C1=O", "assignedClass": "criterion not met"}
{"smilesText": "COc1ccc(N2C(=O)C(=Cc3ccc(C)o3)C(=O)NC2=S)c(OC)c1", "assignedClass": "criterion met"}
{"smilesText": "COc1cccc(N2C(=O)C(=Cc3ccc(C)o3)C(=O)NC2=S)c1", "assignedClass": "criterion not met"}
{"smilesText": "Cc1ccc(C=C2C(=O)NC(=O)N(c3ccc(C)c(C)c3)C2=O)o1", "assignedClass": "criterion not met"}

---

# Test system: C. pipiens F1 (SR×Slab) heterozygous larvae
# protocolNotes: Larval bioassay, heterozygous F1 (SR×Slab)
# Assay type: in vivo, Culex pipiens
# testConditions: C. pipiens heterozygous ace-1 R/ace-1 S larvae
quantityKind: LD50 F1 (SR×Slab) (µM)

{"molecule": "CNC(=O)Oc1ccccc1OC(C)C [Propoxur, reference compound]", "value": 2.3}
{"molecule": "Cc1ccc(C=C2C(=O)N(C)C(=O)N(C)C2=O)o1 [PTF-39]", "value": 110.0}
{"molecule": "COc1cccc(N2C(=O)C(=Cc3ccc(C)o3)C(=O)NC2=S)c1 [PTF-29]", "value": 105.1}
{"molecule": "Cc1cccc(N2C(=O)C(=Cc3ccc(C)o3)C(=O)NC2=S)c1 [PTF-25]", "value": 60.0}
{"molecule": "CCOP(=S)(OCC)Oc1nc(Cl)c(Cl)cc1Cl [Chlorpyrifos, reference compound]", "value": 0.0015}
{"molecule": "COc1ccc(N2C(=O)NC(=O)C(=Cc3ccc(C)o3)C2=O)cc1 [PTF-10]", "value": 207.1}
{"molecule": "Cc1ccc(C=C2C(=O)NC(=O)N(c3ccccc3)C2=O)o1 [PTF-3]", "value": 151.3}

---

# Tested on: C. pipiens SR strain larvae
# protocolNotes: Larval bioassay, SR strain (OP-resistant)
# testConditions: fourth-instar larvae, 24 hours exposure, 300 µM

{"molecule": "Cc1ccc(C=C2C(=O)NC(=O)N(c3cccc(Cl)c3Cl)C2=O)o1 [PTF-21]", "Mortality at 300 µM, SR / %": 0}
{"molecule": "Cc1ccc(C=C2C(=O)N(C)C(=O)N(C)C2=O)o1 [PTF-39]", "Mortality at 300 µM, SR / %": 81}
{"molecule": "CN1C(=O)C(=Cc2ccc(N3CCCC3)o2)C(=O)N(C)C1=O [PTF-48]", "Mortality at 300 µM, SR / %": 0}
{"molecule": "Cc1ccc(C=C2C(=O)NC(=O)N(c3ccc(C)c(C)c3)C2=O)o1 [PTF-7]", "Mortality at 300 µM, SR / %": 100}
{"molecule": "CN1CCN(c2ccc(C=C3C(=O)N(C)C(=O)N(C)C3=O)o2)CC1 [PTF-52]", "Mortality at 300 µM, SR / %": 0}
{"molecule": "Cc1ccc(N2C(=O)NC(=O)C(=Cc3ccc(C)o3)C2=O)cc1 [PTF-4]", "Mortality at 300 µM, SR / %": 100}
{"molecule": "O=C1NC(=O)N(c2ccccc2)C(=O)C1=Cc1ccc(-c2cccc(C(=O)O)c2)o1 [PTF-58]", "Mortality at 300 µM, SR / %": 0}
{"molecule": "Cc1ccc(C=C2C(=O)NC(=O)N(c3ccccc3F)C2=O)o1 [PTF-18]", "Mortality at 300 µM, SR / %": 0}
{"molecule": "COc1ccc(N2C(=O)C(=Cc3ccc(C)o3)C(=O)NC2=S)cc1 [PTF-27]", "Mortality at 300 µM, SR / %": 15}
{"molecule": "O=C1NC(=O)N(c2ccccc2)C(=O)C1=Cc1ccc(N2CCCCC2)s1 [PTF-70]", "Mortality at 300 µM, SR / %": 0}
{"molecule": "COc1ccccc1N1C(=O)C(=Cc2ccc(C)o2)C(=O)NC1=S [PTF-28]", "Mortality at 300 µM, SR / %": 0}
{"molecule": "Cc1ccc(C=C2C(=O)NC(=S)N(CC3CCCO3)C2=O)o1 (centres unmarked) [PTF-32]", "Mortality at 300 µM, SR / %": 0}
{"molecule": "CCOP(=O)(OCC)Oc1nc(Cl)c(Cl)cc1Cl [Chlorpyrifos-oxon, reference compound]", "Mortality at 300 µM, SR / %": 100}
{"molecule": "CN1C(=O)C(=Cc2ccc([N+](=O)[O-])o2)C(=O)N(C)C1=O [PTF-40]", "Mortality at 300 µM, SR / %": 0}
{"molecule": "O=C1NC(=O)N(c2ccccc2)C(=O)C1=Cc1ccc(N2CCOCC2)s1 [PTF-71]", "Mortality at 300 µM, SR / %": 0}
{"molecule": "O=C1NC(=S)N(c2ccccc2)C(=O)C1=Cc1ccco1 [PTF-63]", "Mortality at 300 µM, SR / %": 0}
{"molecule": "Cc1ccc(C=C2C(=O)NC(=S)N(c3ccc(C(=O)O)cc3)C2=O)o1 [PTF-31]", "Mortality at 300 µM, SR / %": 20}
{"molecule": "CCc1ccc(N2C(=O)NC(=O)C(=Cc3ccc(C)o3)C2=O)cc1 [PTF-8]", "Mortality at 300 µM, SR / %": 100}
{"molecule": "COc1ccc(OC)c(N2C(=O)NC(=O)C(=Cc3ccc(C)o3)C2=O)c1 [PTF-14]", "Mortality at 300 µM, SR / %": 0}
{"molecule": "CCc1ccc(N2C(=O)C(=Cc3ccc(C)o3)C(=O)NC2=S)cc1 [PTF-26]", "Mortality at 300 µM, SR / %": 65}
{"molecule": "Cc1ccc(C=C2C(=O)NC(=O)N(c3ccc(C(C)C)cc3)C2=O)o1 [PTF-9]", "Mortality at 300 µM, SR / %": 39}
{"molecule": "CN1C(=O)C(=Cc2ccc(-c3ccccc3C(=O)O)o2)C(=O)N(C)C1=O [PTF-43]", "Mortality at 300 µM, SR / %": 0}
{"molecule": "O=C1NC(=O)N(c2ccccc2)C(=O)C1=Cc1ccc(-c2ccc(C(=O)O)cc2)o1 [PTF-57]", "Mortality at 300 µM, SR / %": 0}
{"molecule": "Cc1ccc(C=C2C(=O)NC(=O)N(c3ccc(Cl)cc3)C2=O)o1 [PTF-20]", "Mortality at 300 µM, SR / %": 94}
{"molecule": "CC(=O)c1ccc(-c2ccc(C=C3C(=O)N(C)C(=O)N(C)C3=O)o2)cc1 [PTF-45]", "Mortality at 300 µM, SR / %": 0}
{"molecule": "COc1ccccc1N1C(=O)NC(=O)C(=Cc2ccc(C)o2)C1=O [PTF-11]", "Mortality at 300 µM, SR / %": 0}
